test target: Rad30 PIP peptide
assay comment: SPR analysis of PCNA binding to PIP peptide
Set-up: species or system yeast
experimental parameters: PCNA immobilized, peptide 5-5,000 nM, ProteOn XPR36; read-out: Binding affinity for Rad30 PIP peptide (SPR)

substance: POL30: wild-type yeast PCNA (POL30), IDCL sequence DIDADFLKIEEL
Kd: 170 nM
